Please provide measured IC50 for the entries that follow.
test system: E. rostratum hyphal fragments; assay: hyphal fragment fungicidal ATP content assay (PBS, 1536-well); assay type: cell-based, Exserohilum rostratum; conditions: Table 2; 24 h; inact. = no significant activity in the primary screen; read-out: Hyphae IC50
Could you kindly put the unit after your number?

>  <compound>
CO/C=C(/C(=O)OC)c1ccccc1Oc1cc(Oc2ccccc2C#N)ncn1 [Azoxystrobin]

>  <assay readout>
IC50

>  <result>
198 nM

$$$$

Below: the item to evaluate.
[ask] Would you kindly share the measured IC50 for O=C1[O][Pt]2([NH][C@@H]3CCCC[C@H]3[NH]2)[O]C1=O [Oxaliplatin] ?
[reply] 935 nM

* * *

tested on: E. rostratum conidia; experiment: conidia growth inhibition ATP content assay (RPMI, 1536-well); assay type: cell-based, Exserohilum rostratum; conditions: Exserohilum rostratum, 24 h, read-out: Conidia IC50
assay readout: pIC50
One number for each entry, as −log10 of the molar value.

A selection of reference data follows.
>  <compound>
CNc1ccc2oc(C[C@H]3O[C@@]4(CC[C@H]3C)O[C@H]([C@H](C)C(=O)c3ccc[nH]3)[C@H](C)C[C@H]4C)nc2c1C(=O)O [Calcimycin]

>  <quantitative result>
6.13

$$$$
>  <compound>
Oc1ccc(Cl)cc1Sc1cc(Cl)ccc1O [Fenticlor]

>  <quantitative result>
5.24

$$$$

Below: the item to evaluate.
[ask] Would you kindly share the measured pIC50 for Oc1c(Cl)cc(Cl)c(Cl)c1Cc1c(O)c(Cl)cc(Cl)c1Cl [Hexachlorophene] ?
[reply] 5.40

* * *

test system: E. rostratum hyphal fragments; test: hyphal fragment fungicidal ATP content assay (PBS, 1536-well); assay type: cell-based, Exserohilum rostratum; conditions: Exserohilum rostratum; Table S1; 46 µM Amphotericin B = 100%; Inact. = no significant activity in the primary screen; read-out: Hyphae % M. Res.
Please provide measured Emax for the entries that follow.
Could you kindly put the unit after your number?

A selection of reference data follows.
>  <molecule>
Clc1ccc(C2(Cn3cncn3)OCCO2)c(Cl)c1 [Azaconazole]

>  <Emax>
64%

$$$$
>  <molecule>
N#C/C(=C1/SC[C@@H](c2ccc(Cl)cc2Cl)S1)n1ccnc1 [Luliconazole]

>  <Emax>
82%

$$$$
>  <molecule>
CC(=O)N1CCN(c2ccc(OCC3COC(Cn4ccnc4)(c4ccc(Cl)cc4Cl)O3)cc2)CC1 (stereo not shown) [Ketoconazole]

>  <Emax>
74%

$$$$

Below: the item to evaluate.
[ask] Would you kindly share the measured Emax for C[C@@H]1[C@H](O)[C@@H](C)/C=C/C=C/C=C/C=C/C=C/C=C/C=C/[C@H](O[C@@H]2O[C@H](C)[C@@H](O)[C@H](N)[C@@H]2O)C[C@@H]2O[C@](O)(C[C@@H](O)C[C@@H](O)[C@H](O)CC[C@@H](O)C[C@@H](O)CC(=O)O[C@H]1C)C[C@H](O)[C@H]2C(=O)O [Amphotericin B] ?
[reply] 84%

* * *

Please provide measured pIC50 for the entries that follow.
test system: E. rostratum conidia; assay: conidia growth inhibition ATP content assay (RPMI, 1536-well); format: cell-based, Exserohilum rostratum; conditions: Exserohilum rostratum, Table S1; Inact. = no significant activity at the highest compound concentration (46 µM); read-out: Conidia IC50
One number for each entry, as −log10 of the molar value.

>  <compound>
c1ccc(-c2ccc(C(c3ccccc3)n3ccnc3)cc2)cc1 (centres unmarked)

>  <pIC50>
5.03

$$$$

[ask] Short answer please: pIC50, E. rostratum conidia, entry `C[C@@H]1[C@H](O)[C@@H](C)/C=C/C=C/C=C/C=C/C=C/C=C/C=C/[C@H](O[C@@H]2O[C@H](C)[C@@H](O)[C@H](N)[C@@H]2O)C[C@@H]2O[C@](O)(C[C@@H](O)C[C@@H](O)[C@H](O)CC[C@@H](O)C[C@@H](O)CC(=O)O[C@H]1C)C[C@H](O)[C@H]2C(=O)O`
[reply] 6.09

* * *

System: E. rostratum hyphal fragments
Experiment: hyphal fragment fungicidal ATP content assay (PBS, 1536-well)
Type: cell-based, Exserohilum rostratum
Details: Table 2; 24 h; inact. = no significant activity in the primary screen
Description: Conidia and hyphae of E. rostratum were obtained as described by Richard et al., with the following modifications. […] After centrifugation at 700g for 10 min, the suspension was decanted and conidia were resuspended at 1×10^5 per ml in RPMI and counted in a hemocytometer. […] The ATPLite assay kit, consisting of luciferase/luciferin and detergent, was used to quantitate cellular ATP levels as a marker for cell viability (Table 1). […]

>  <compound>
Oc1ccc(Cl)cc1Sc1cc(Cl)ccc1O [Fenticlor]

>  <Hyphae IC50>
inact.

$$$$
>  <compound>
CNc1ccc2oc(C[C@H]3O[C@@]4(CC[C@H]3C)O[C@H]([C@H](C)C(=O)c3ccc[nH]3)[C@H](C)C[C@H]4C)nc2c1C(=O)O [Calcimycin]

>  <Hyphae IC50>
inact.

$$$$
>  <compound>
O=C(Nc1ccc(Br)cc1)c1cc(Br)cc(Br)c1O [Tribromosalan]

>  <Hyphae IC50>
inact.

$$$$

* * *

tested on: E. rostratum hyphal fragments; assay: hyphal fragment fungicidal ATP content assay (PBS, 1536-well); format: cell-based, Exserohilum rostratum; settings: Exserohilum rostratum; Table 2; 24 h; inact. = no significant activity in the primary screen; read-out: Hyphae IC50
assay readout: pIC50
Give bare numbers, as −log10 of the molar value.

A selection of reference data follows.
>  <molecule>
CC[C@@H]([C@H](C)O)n1ncn(-c2ccc(N3CCN(c4ccc(OC[C@@H]5CO[C@@](Cn6cncn6)(c6ccc(F)cc6F)C5)cc4)CC3)cc2)c1=O [Posaconazole]

>  <quantitative result>
6.92

$$$$
>  <molecule>
C[C@@H](c1ncncc1F)[C@](O)(Cn1cncn1)c1ccc(F)cc1F [Voriconazole]

>  <quantitative result>
5.59

$$$$
>  <molecule>
O=C1C2CC=CCC2C(=O)N1SC(Cl)(Cl)Cl (centres unmarked) [Captan]

>  <quantitative result>
5.93

$$$$

Below are some molecules; for each one, tell me its pIC50.
1. C=CC[C@@H]1/C=C(\C)C[C@H](C)C[C@H](OC)[C@H]2O[C@@](O)(C(=O)C(=O)N3CCCC[C@H]3C(=O)O[C@H](/C(C)=C/[C@@H]3CC[C@@H](O)[C@H](OC)C3)[C@H](C)[C@@H](O)CC1=O)[C@H](C)C[C@@H]2OC [Tacrolimus]
2. O=[N+]([O-])c1c(Cl)cccc1-c1c[nH]cc1Cl [Pyrrolnitrin]
3. C=CCOC(Cn1ccnc1)c1ccc(Cl)cc1Cl (centres unmarked) [Enilconazole]
4. N#C/C(=C1/SC[C@@H](c2ccc(Cl)cc2Cl)S1)n1ccnc1 [Luliconazole]

[reply]
1. 7.49
2. 5.25
3. 6.51
4. 5.19

Below are some molecules; for each one, tell me its pIC50.
1. Cc1cc(N)c2ccccc2[n+]1CCCCCCCCCC[n+]1c(C)cc(N)c2ccccc21 [Dequalinium dichloride]
2. Clc1ccc(C(Cn2ccnc2)OCc2ccsc2Cl)c(Cl)c1 (centres unmarked) [Tioconazole]
3. C[C@@H]1[C@H](O)[C@@H](C)/C=C/C=C/C=C/C=C/C=C/C=C/C=C/[C@H](O[C@@H]2O[C@H](C)[C@@H](O)[C@H](N)[C@@H]2O)C[C@@H]2O[C@](O)(C[C@@H](O)C[C@@H](O)[C@H](O)CC[C@@H](O)C[C@@H](O)CC(=O)O[C@H]1C)C[C@H](O)[C@H]2C(=O)O [Amphotericin B]

[reply]
[6.17, 5.22, 7.85]

Below are some molecules; for each one, tell me its pIC50.
1. CCC(C)(C)c1ccc(CC(C)CN2C[C@@H](C)O[C@@H](C)C2)cc1 (some centres unmarked) [Amorolfine]
2. N#C/C(=C1/SCC(c2ccccc2Cl)S1)n1ccnc1 (centres unmarked) [Lanoconazole]
3. COCc1c(C(C)C)nc(C(C)C)c(/C=C/[C@@H](O)C[C@@H](O)CC(=O)O)c1-c1ccc(F)cc1 [Cerivastatin sodium]
4. CC1(C)CCC(=Cc2ccc(Cl)cc2)C1(O)Cn1cncn1 (centres unmarked) [Triticonazole]

[reply]
5.35
6.69
5.79
5.24

* * *

test system: E. rostratum hyphal fragments; experiment: hyphal fragment fungicidal ATP content assay (PBS, 1536-well); format: cell-based, Exserohilum rostratum; conditions: Exserohilum rostratum; Table S1; 46 µM Amphotericin B = 100%; Inact. = no significant activity in the primary screen; read-out: Hyphae % M. Res.
assay readout: Emax
Could you kindly put the unit after your number?

A selection of reference data follows.
>  <compound>
CN(C)C(=S)SC(=S)N(C)C [Tetramethylthiuram monosulfide]

>  <tested on>
E. rostratum hyphal fragments

>  <Emax>
59%

$$$$
>  <compound>
C[C@@H]1C/C=C/C=C/C=C/C=C/[C@H](O[C@@H]2O[C@H](C)[C@@H](O)[C@H](N)[C@@H]2O)C[C@@H]2O[C@](O)(C[C@@H](O)C[C@H]3O[C@@H]3/C=C/C(=O)O1)C[C@H](O)[C@H]2C(=O)O [Natamycin]

>  <tested on>
E. rostratum hyphal fragments

>  <Emax>
66%

$$$$
>  <compound>
Clc1ccc(COC(Cn2ccnc2)c2ccc(Cl)cc2Cl)cc1 (centres unmarked) [Econazole nitrate]

>  <tested on>
E. rostratum hyphal fragments

>  <Emax>
77%

$$$$
>  <compound>
CC1(C)CCC(=Cc2ccc(Cl)cc2)C1(O)Cn1cncn1 (centres unmarked) [Triticonazole]

>  <tested on>
E. rostratum hyphal fragments

>  <Emax>
74%

$$$$
>  <compound>
CN(C/C=C/C#CC(C)(C)C)Cc1cccc2ccccc12 [Terbinafine]

>  <tested on>
E. rostratum hyphal fragments

>  <Emax>
64%

$$$$

Below are some compounds; for each one, tell me its Emax.
1. CC(C)N1CCN(c2ccc(OCC3COC(Cn4cncn4)(c4ccc(Cl)cc4Cl)O3)cc2)CC1 (centres unmarked) [Terconazole]
2. Clc1ccc(C(Cn2ccnc2)OCc2ccsc2Cl)c(Cl)c1 (centres unmarked) [Tioconazole]
3. c1ccc(-c2ccc(C(c3ccccc3)n3ccnc3)cc2)cc1 (centres unmarked) [Bifonazole]

[reply]
["100%", "100%", "74%"]

Sourced from paper PMC3749181
